Test system: epidermal growth factor receptor (HeLa cells)
Experiment: Epidermal growth factor binding inhibition assay: 125I-EGF binding to HeLa cells after treatment with phototherapeutic and UVA
Format: cell-based, human
Conditions: read-out: IC50, concentration of each compound inhibiting 125I-EGF binding to HeLa cells by 50%, cells pulsed with 2.1 J/cm^2 of ultraviolet light (UVA, 320-400 nm) after treatment, 2 nM 125I-EGF, 2 h at 4° C.
Can you tell me IC50 for the items I'm about to list?
Numbers only, in µM.

The cases that follow already have their IC50 on record.
COMPOUND: Cc1cc(=O)oc2c(C)c3oc(CBr)c(Br)c3cc12
MEASUREMENT_LABEL: IC50
NUMERIC_RESULT: 3.6
--
COMPOUND: CCOC(=O)c1cc2cc3c(cc2oc1=O)OCC3 [3-carboethoxy-4',5'-dihydropsoralen]
MEASUREMENT_LABEL: IC50
NUMERIC_RESULT: 4.9
--
COMPOUND: Cc1cc(=O)oc2c(C)c3oc(CBr)cc3cc12 [5'-bromomethyl-4,8-dinethylpsoralen, 5'-Bromomethyl-4,8-dimethylpsoralen]
MEASUREMENT_LABEL: IC50
NUMERIC_RESULT: 1.5
--
COMPOUND: COc1c2c(cc3oc(=O)ccc13)OCC2 [5-methoxy-4',5'-dihydropsoralen]
MEASUREMENT_LABEL: IC50
NUMERIC_RESULT: 2.8
--
COMPOUND: Cc1cc2cc3c(C)cc(=O)oc3c(C)c2o1 [4,5',8-trimethylpsoralen, reference compound]
MEASUREMENT_LABEL: IC50
NUMERIC_RESULT: 6.6

Quick one: give me IC50 for each item below, same order please.
1. O=c1ccc2cc3c(cc2o1)OCC3 [4',5'-dihydropsoralen]
2. Cc1cc(=O)oc2c(C)c3oc(C[n+]4ccccc4)cc3cc12
3. Cc1c([N+](=O)[O-])c(=O)oc2c(C)c3c(cc12)CC(C)O3 (stereo not drawn)
4. COc1c2ccoc2cc2oc(=O)ccc12 [5-methoxypsoralen (5-MOP), 5-methoxypsoralen, reference compound]

Reply text:
11
0.74
24
1.6
